Target: Recombinant human his-tagged IGF R extracellular domain protein (human) (UniProt P08069)
Assay: SPR, Ab captured via anti-huIgG Fc, dissociation at pH 6
Known pKd of a selection of binders
// returns pKd (minus log10 of molar concentration), number only

Example results:
Binder	Observed Value
VRDN-02054 (antibody, V domains shown) VH: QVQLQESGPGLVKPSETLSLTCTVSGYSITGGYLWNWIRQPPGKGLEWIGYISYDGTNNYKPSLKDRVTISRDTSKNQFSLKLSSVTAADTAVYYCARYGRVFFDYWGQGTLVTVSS VL: DIVMTQSPLSLPVTPGEPASISCRSSQSIVHSNGNTYLQWYLQKPGQSPQLLIYKVSNRLYGVPDRFSGSGSGTDFTLKISRVEAEDVGVYYCFQGHHVPWTFGQGTKVEIK	8.94
VRDN-02051 (antibody, V domains shown) VH: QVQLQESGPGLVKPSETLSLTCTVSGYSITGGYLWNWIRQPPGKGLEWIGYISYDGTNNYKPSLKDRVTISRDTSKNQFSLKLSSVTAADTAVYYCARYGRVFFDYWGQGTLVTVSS VL: DIVMTQSPLSLPVTPGEPASISCRSSQSIVHSNGNTYLQWYLQKPGQSPQLLIYKVSNRLYGVPDRFSGSGSGTDFTLKISRVEAEDVGVYYCHQGSHVPWTFGQGTKVEIK	8.89

Data request: Name the reported pKd value associated with the binder VRDN-02073 (antibody, V domains shown) VH: QVQLQESGPGLVKPSETLSLTCTVSGYSITGGYLWNWIRQPPGKGLEWIGYIHYDGTNNYKPSLKDRVTISRDTSKNQFSLKLSSVTAADTAVYYCARHGRVFFDYWGQGTLVTVSS VL: DIVMTQSPLSLPVTPGEPASISCRSHQSIVHSNGNTYLQWYLQKPGQSPQLLIYKVSNRLYGVPDRFSGSGSGTDFTLKISRVEAEDVGVYYCFQGSHVPHTFGQGTKVEIK
Data returned: 9.57

Each recorded value in this set is attributed to patent US20240360227A1.
